Value source: ChEMBL document CHEMBL1140247

Here, each record is paired with measured inhibition data.
Target: ATP-dependent molecular chaperone HSP82 (Saccharomyces cerevisiae S288c) (UniProt P02829)
Sequence (P02829 whole entry, looked up): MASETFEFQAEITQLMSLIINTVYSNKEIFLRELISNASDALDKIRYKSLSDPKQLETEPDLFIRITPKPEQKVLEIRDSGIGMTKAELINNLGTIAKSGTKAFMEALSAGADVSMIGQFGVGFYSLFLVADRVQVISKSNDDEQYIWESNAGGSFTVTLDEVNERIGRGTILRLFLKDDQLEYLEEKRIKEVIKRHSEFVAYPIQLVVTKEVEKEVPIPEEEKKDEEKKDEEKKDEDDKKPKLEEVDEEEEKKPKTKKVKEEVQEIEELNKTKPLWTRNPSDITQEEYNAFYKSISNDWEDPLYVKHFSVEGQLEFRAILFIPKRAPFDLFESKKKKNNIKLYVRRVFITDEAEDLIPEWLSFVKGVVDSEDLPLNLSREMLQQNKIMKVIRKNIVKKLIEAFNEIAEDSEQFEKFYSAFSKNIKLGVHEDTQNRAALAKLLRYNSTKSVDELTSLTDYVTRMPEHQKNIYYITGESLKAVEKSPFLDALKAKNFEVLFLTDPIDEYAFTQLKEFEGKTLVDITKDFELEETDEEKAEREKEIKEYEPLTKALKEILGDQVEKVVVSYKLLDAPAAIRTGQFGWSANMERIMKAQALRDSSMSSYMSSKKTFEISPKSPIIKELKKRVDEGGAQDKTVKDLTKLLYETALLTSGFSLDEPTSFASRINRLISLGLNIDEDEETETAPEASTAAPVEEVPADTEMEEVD
Test: Inhibition of yeast Hsp90 ATPase activity at 40 uM
Assay type: functional
Please state the figure in %; there is no need to write the unit.

Use the examples below as a reference point.
- COc1ccc(-c2c[nH]nc2-c2cc(C(C)C)c(OC)cc2O)cc1: 13
- CCC(C)c1cc(-c2[nH]ncc2-c2ccc3c(c2)OCCO3)c(O)cc1OC (centres undefined): 0
- CCCc1cc(-c2[nH]nc(C)c2-c2ccc3c(c2)OCCO3)c(O)cc1O: 25

[ask] Look up inhibition: CC(C)c1cc(-c2[nH]ncc2-c2nc3ccccc3s2)c(O)cc1O
[reply] 15
